Measured Fik Kinase %Inhibition values are reported for all entries that follow.
target: FLK-1 receptor (Mus musculus, UniProt P35918); construct: expressed in transfected cells; host or cells: NIH3T3 C7#3; assay: FLK-1 ELISA (kinase activity of the FLK-1 receptor in FLK-1/NIH3T3 cells, VEGF stimulated); assay type: cell-based
Sequence (P35918 20-1345): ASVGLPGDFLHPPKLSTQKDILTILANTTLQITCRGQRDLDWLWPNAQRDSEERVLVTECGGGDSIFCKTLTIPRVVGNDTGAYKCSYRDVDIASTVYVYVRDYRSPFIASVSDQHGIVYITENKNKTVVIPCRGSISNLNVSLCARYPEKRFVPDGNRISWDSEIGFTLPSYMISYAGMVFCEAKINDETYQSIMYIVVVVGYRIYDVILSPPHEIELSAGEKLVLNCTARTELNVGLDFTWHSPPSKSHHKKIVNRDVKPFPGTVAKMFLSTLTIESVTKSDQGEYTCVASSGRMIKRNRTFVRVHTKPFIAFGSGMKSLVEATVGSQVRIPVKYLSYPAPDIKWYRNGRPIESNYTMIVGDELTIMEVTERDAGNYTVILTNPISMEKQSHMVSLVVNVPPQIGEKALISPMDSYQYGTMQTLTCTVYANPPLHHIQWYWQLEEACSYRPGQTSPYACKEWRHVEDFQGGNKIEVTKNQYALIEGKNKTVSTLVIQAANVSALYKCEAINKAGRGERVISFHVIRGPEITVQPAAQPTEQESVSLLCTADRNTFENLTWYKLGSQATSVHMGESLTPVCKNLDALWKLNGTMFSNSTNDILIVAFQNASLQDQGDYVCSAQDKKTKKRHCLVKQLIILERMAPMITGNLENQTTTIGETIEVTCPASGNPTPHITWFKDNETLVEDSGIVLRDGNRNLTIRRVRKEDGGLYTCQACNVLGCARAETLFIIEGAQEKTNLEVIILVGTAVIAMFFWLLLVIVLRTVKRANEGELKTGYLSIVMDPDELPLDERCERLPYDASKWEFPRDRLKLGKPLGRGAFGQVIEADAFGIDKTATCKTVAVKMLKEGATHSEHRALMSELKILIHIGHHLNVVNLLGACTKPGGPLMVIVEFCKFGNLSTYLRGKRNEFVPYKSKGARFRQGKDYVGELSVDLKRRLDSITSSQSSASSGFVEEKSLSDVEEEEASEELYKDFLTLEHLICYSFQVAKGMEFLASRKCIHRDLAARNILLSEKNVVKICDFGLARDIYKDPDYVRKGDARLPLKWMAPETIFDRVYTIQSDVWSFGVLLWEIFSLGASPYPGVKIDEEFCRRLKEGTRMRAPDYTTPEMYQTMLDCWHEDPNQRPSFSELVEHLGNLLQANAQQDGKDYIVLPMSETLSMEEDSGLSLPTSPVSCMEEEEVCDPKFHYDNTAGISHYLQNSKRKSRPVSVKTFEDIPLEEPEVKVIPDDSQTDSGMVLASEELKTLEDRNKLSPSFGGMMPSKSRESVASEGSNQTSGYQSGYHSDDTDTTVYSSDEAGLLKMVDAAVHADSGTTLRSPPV
Numeric answer only, unit % assumed.

The recorded Fik Kinase %Inhibition for CC(C)(C)c1cc(C=C2C(=O)Nc3c(Br)cc(Br)cc32)c(O)c(C(C)(C)C)c1 [10723/A11] is 42.9

The recorded Fik Kinase %Inhibition for O=C1Nc2ccc(S(=O)(=O)Nc3ccc(C(F)(F)F)cc3)cc2C1=Cc1ccc2ccccc2c1O [10718/E04] is 15.1

The recorded Fik Kinase %Inhibition for O=C1Nc2ccc(S(=O)(=O)Nc3ccc(C(F)(F)F)cc3)cc2C1=Cc1ncc[nH]1 [10720/E11] is 9.3

The recorded Fik Kinase %Inhibition for CCN(CC)c1ccc(C=C2C(=O)Nc3ccc(CCCl)cc32)c(O)c1 [10734/G05] is 7.4

The recorded Fik Kinase %Inhibition for CCc1ccc(C=C2C(=O)Nc3ccc(S(=O)(=O)NC)cc32)o1 [10724/D10] is 3.7

The recorded Fik Kinase %Inhibition for CC(C)(C)c1cc(C=C2C(=O)Nc3ccc(I)cc32)c(O)c(C(C)(C)C)c1 [10723/B11] is 6.3

The recorded Fik Kinase %Inhibition for O=C1Nc2ccc(S(=O)(=O)N3CCOCC3)cc2C1=Cc1ccc(Cl)c([N+](=O)[O-])c1 [10718/F08] is 15.3

The recorded Fik Kinase %Inhibition for N#Cc1cccc(C=C2C(=O)Nc3ccc(CCCl)cc32)c1 [10727/G08] is 15.7

Data credit: patent EP1247803A2
